Just for reference, ChEMBL document CHEMBL3112495 is where these values come from.

method.summary: Metabolic stability of the compound in rat liver microsomes assessed as compound remaining after 10 mins
Format: ADME
measurement.conditions: read-out: Stability
assay.readout: remaining at 10 min (%)

Example results:
| smiles.record | display.unit | remaining at 10 min |
| --- | --- | --- |
| Fc1cc(OC(F)(F)C(F)F)cc([C@@](Cc2ccccc2)(Nc2nc(C(F)(F)F)c(Br)s2)c2ccc(Cl)cn2)c1 | % | 95 |
| O=C(NC1CCCC1)N[C@@](Cc1ccccc1)(c1cc(F)cc(OC(F)(F)C(F)F)c1)c1ccc(Cl)cn1 | % | 12 |
| Fc1cc(OC(F)(F)C(F)F)cc([C@@](Cc2ccccc2)(Nc2nc3c(F)cc(F)cc3[nH]2)c2ccc(Cl)cn2)c1 | % | 100 |
| Fc1cc(C(F)(F)F)cc([C@@](Cc2ccccc2)(Nc2nc3c(s2)CCC3)c2ccc(Cl)cn2)c1 | % | 56 |
| Fc1cc(OC(F)(F)C(F)F)cc([C@@](Cc2ccccc2)(Nc2nc(C(F)(F)F)cs2)c2ccc(Cl)cn2)c1 | % | 83 |

1. Fc1cc(OC(F)(F)C(F)F)cc([C@@](Cc2ccccc2)(Nc2nc3cc(F)ccc3[nH]2)c2ccc(Cl)cn2)c1
2. Cc1sc(N[C@](Cc2ccccc2)(c2cc(F)cc(OC(F)(F)C(F)F)c2)c2ccc(Cl)cn2)nc1C(F)(F)F
**Query** Looking at 1 and 2 , which one comes out lower in remaining at 10 min terms? Select an item and report its label.
**Result** 2
(2: 55%, 1: 95%)
